biological target: HiBiT-tagged IKZF1 (Homo sapiens, UniProt Q13422+Q96SW2); construct: expressed in transfected cells; host or cells: HT-1080 (ATCC CCL-121), lentiviral transduction; assay: Degradation assay for IKZF1 (HiBiT tag bioluminescence assay); assay type: cell-based; settings: Table 2; HT-1080 IKZF1 HiBiT reporter cells; all compounds tested on the same day; read-out: HiBiT IKZF1: DC50
Sequence (Q13422 whole entry): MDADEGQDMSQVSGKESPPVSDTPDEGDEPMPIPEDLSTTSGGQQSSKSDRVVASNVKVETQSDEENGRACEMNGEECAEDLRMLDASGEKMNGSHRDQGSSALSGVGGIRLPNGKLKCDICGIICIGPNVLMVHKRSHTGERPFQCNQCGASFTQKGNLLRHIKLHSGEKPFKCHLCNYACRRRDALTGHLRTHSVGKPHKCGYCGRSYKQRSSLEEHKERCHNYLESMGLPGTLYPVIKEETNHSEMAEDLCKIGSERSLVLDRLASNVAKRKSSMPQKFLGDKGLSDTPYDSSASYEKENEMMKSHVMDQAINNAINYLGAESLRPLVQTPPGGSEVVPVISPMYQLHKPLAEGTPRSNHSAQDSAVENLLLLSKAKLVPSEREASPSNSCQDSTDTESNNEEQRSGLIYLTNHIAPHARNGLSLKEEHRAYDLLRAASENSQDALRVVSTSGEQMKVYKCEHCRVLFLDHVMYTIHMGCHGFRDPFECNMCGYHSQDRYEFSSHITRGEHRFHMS
Sequence (Q96SW2 whole entry): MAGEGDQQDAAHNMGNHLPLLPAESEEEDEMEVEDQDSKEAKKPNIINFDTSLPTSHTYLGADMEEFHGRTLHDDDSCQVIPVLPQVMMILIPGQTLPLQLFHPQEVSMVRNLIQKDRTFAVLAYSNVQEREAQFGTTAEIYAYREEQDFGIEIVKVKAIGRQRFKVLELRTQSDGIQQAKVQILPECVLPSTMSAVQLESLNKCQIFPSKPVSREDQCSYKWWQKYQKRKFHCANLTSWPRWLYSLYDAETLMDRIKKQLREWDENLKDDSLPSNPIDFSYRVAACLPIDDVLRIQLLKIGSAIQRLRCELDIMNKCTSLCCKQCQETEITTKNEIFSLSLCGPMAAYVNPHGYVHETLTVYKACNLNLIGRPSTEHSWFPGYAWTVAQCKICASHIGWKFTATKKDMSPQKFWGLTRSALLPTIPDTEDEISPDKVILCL
Sequence (Q16531 whole entry partner): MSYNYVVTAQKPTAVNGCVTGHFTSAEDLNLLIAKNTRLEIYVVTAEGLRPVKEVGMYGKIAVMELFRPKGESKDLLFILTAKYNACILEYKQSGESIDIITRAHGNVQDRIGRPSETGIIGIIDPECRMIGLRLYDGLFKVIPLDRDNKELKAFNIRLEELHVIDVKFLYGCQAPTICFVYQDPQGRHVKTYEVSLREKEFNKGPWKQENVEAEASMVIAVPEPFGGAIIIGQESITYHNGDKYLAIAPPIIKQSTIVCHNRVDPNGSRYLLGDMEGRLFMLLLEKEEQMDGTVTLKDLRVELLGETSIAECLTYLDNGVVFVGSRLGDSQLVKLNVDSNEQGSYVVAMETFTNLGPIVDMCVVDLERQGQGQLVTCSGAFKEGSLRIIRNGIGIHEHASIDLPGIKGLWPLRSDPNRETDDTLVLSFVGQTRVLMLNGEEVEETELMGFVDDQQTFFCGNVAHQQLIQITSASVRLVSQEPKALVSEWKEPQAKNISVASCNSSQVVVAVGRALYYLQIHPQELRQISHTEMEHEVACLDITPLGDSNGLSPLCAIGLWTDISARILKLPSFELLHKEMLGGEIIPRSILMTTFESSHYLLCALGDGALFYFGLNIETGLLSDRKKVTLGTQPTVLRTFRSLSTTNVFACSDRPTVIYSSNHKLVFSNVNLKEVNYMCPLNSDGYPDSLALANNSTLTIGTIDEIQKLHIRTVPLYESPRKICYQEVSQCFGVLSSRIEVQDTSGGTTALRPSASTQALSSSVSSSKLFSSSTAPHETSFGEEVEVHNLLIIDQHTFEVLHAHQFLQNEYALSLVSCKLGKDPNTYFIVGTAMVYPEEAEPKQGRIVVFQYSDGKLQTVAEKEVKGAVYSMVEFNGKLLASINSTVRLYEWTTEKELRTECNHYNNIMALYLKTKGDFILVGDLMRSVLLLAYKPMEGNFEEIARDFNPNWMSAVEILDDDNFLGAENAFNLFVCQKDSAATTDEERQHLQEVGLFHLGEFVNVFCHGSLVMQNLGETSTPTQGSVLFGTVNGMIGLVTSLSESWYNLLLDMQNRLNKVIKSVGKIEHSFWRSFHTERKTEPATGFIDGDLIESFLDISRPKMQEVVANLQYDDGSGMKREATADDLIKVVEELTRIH
observable: DC50 (pM)

Completed entries (count: 3):
>  <compound>
N#Cc1ccc(N2CCN(Cc3ccc(Cc4ccc5c6c(c(F)ccc46)C(=O)N5C4CCC(=O)NC4=O)cc3)CC2)c(F)c1 (stereo not drawn)

>  <recorded.result>
39100

$$$$
>  <compound>
N#Cc1ccc(N2CCN(Cc3ccc(Cc4ccc5c6c(cccc46)C(=O)N5C4CCC(=O)NC4=O)c(F)c3)CC2)c(F)c1 (stereo not drawn)

>  <recorded.result>
14

$$$$
>  <compound>
N#Cc1ccc(N2CCN(Cc3ccc(Cc4ccc5c6c(cc(F)cc46)C(=O)N5[C@@H]4CCC(=O)NC4=O)cc3)CC2)c(F)c1 (single isomer, unassigned)

>  <recorded.result>
185

$$$$

I: O=C1CCC(N2C(=O)c3cccc4c(Cc5ccc(CN6CCOCC6)cc5)ccc2c34)C(=O)N1 (stereo not drawn)
II: N#Cc1ccc(N2CCN(Cc3ccc(Cc4ccc5c6c(ccc(F)c46)C(=O)N5C4CCC(=O)NC4=O)cc3)CC2)c(F)c1 (stereo not drawn)
Task: Of the pair I and II , name the member with the lesser recorded DC50. Lab note: record the label of whichever item you select.
Result: I
(I: 157 pM, II: 1000 pM)
